# System: TTR
# Measurement Description: TTR editing dose response (EC50, maximum editing) in primary cyno hepatocytes treated with LNP formulated U-depleted Spy Cas9 mRNA and sgRNAs
# Type: cell-based, cynomolgus monkey
# Experimental Setup: LNP formulated U-depleted Spy Cas9 mRNA and human specific sgRNAs
Strand notation (5' to 3'): a small letter for the sugar, then the base; units joined by * are phosphorothioate-linked, units joined directly phosphodiester-linked; [ ] holds rarer units or linkages, { } end groups; capitals alone tell only the bases. m = 2'-O-methyl; r = 2'-OH (RNA)
Decision: Max Editing >= 7% yields 1, all other cases yield -1.

1) G000490: TTR sgRNA modified sequence, Human, SEQ ID NO: 97; guide sequence of CR003366 (nucleic acid) guide: mA*mA*mA*rUrArGrArCrArCrCrArArArUrCrUrUrArCrGrUrUrUrUrArGrAmGmCmUmAmGmAmAmAmUmAmGmCrArArGrUrUrArArArArUrArArGrGrCrUrArGrUrCrCrGrUrUrArUrCrAmAmCmUmUmGmAmAmAmAmAmGmUmGmGmCmAmCmCmGmAmGmUmCmGmGmUmGmCmU*mU*mU*mU = 1
2) G000493: TTR sgRNA modified sequence, Human, SEQ ID NO: 100; guide sequence of CR003368 (nucleic acid) guide: mA*mA*mG*rUrGrCrCrUrUrCrCrArGrUrArArGrArUrUrGrUrUrUrUrArGrAmGmCmUmAmGmAmAmAmUmAmGmCrArArGrUrUrArArArArUrArArGrGrCrUrArGrUrCrCrGrUrUrArUrCrAmAmCmUmUmGmAmAmAmAmAmGmUmGmGmCmAmCmCmGmAmGmUmCmGmGmUmGmCmU*mU*mU*mU = 1
3) G000572: TTR sgRNA modified sequence, Human, SEQ ID NO: 113; guide sequence of CR003385 (nucleic acid) guide: mC*mC*mC*rCrUrArCrUrCrCrUrArUrUrCrCrArCrCrArGrUrUrUrUrArGrAmGmCmUmAmGmAmAmAmUmAmGmCrArArGrUrUrArArArArUrArArGrGrCrUrArGrUrCrCrGrUrUrArUrCrAmAmCmUmUmGmAmAmAmAmAmGmUmGmGmCmAmCmCmGmAmGmUmCmGmGmUmGmCmU*mU*mU*mU = 1
4) G000570: TTR sgRNA modified sequence, Human, SEQ ID NO: 111; guide sequence of CR003347 (nucleic acid) guide: mC*mA*mU*rUrGrArUrGrGrCrArGrGrArCrUrGrCrCrUrGrUrUrUrUrArGrAmGmCmUmAmGmAmAmAmUmAmGmCrArArGrUrUrArArArArUrArArGrGrCrUrArGrUrCrCrGrUrUrArUrCrAmAmCmUmUmGmAmAmAmAmAmGmUmGmGmCmAmCmCmGmAmGmUmCmGmGmUmGmCmU*mU*mU*mU = 1
5) G000484: TTR sgRNA modified sequence, Human, SEQ ID NO: 91; guide sequence of CR003367 (nucleic acid) guide: mA*mG*mA*rCrArCrCrArArArUrCrUrUrArCrUrGrGrArGrUrUrUrUrArGrAmGmCmUmAmGmAmAmAmUmAmGmCrArArGrUrUrArArArArUrArArGrGrCrUrArGrUrCrCrGrUrUrArUrCrAmAmCmUmUmGmAmAmAmAmAmGmUmGmGmCmAmCmCmGmAmGmUmCmGmGmUmGmCmU*mU*mU*mU = -1
